This collection of values is drawn from patent US20250263753A1.

biological target: ATM (Homo sapiens (Human), UniProt Q13315); experiment: ATM biochemical assay (Reaction Biology HTRF kinase assay, 10 μM ATP); conditions: class symbol
readout_type: IC50

molecule | IC50
COC12CCC(n3c(=O)n(C)c4cnc(Nc5cc6nsnc6cc5C)nc43)(CC1)C2 | 10 to 100 nM

Ask | Returns the measured IC50 for the input molecule. Input: Cc1cc2ncnn2cc1Nc1ncc2c(n1)n(C13CC(F)(C1)C3)c(=O)n2C
Reply | 100 to 1000 nM

Ask | Form field: reported IC50 of Cc1cc2ncnn2cc1Nc1ncc2c(n1)N(C13CCC(O)(CC1)C3)CC(=O)N2C
Reply | 100 to 1000 nM

Ask | # input molecule: Cc1cc(-c2cnn(C)c2)c(F)cc1Nc1ncc2c(n1)n(C13CC(F)(C1)C3)c(=O)n2C ; wanted: its IC50
Reply | 10 to 100 nM

###

biological target: PI3Kδ (His-PIK3CD/PIK3R1, p110 delta/p85 alpha) (Homo sapiens (Human), UniProt O00329); experiment: PI3Kδ biochemical assay (HTRF/FRET probe); format: binding; conditions: class symbol
Sequence (O00329 whole entry, species assumed, one chain of several): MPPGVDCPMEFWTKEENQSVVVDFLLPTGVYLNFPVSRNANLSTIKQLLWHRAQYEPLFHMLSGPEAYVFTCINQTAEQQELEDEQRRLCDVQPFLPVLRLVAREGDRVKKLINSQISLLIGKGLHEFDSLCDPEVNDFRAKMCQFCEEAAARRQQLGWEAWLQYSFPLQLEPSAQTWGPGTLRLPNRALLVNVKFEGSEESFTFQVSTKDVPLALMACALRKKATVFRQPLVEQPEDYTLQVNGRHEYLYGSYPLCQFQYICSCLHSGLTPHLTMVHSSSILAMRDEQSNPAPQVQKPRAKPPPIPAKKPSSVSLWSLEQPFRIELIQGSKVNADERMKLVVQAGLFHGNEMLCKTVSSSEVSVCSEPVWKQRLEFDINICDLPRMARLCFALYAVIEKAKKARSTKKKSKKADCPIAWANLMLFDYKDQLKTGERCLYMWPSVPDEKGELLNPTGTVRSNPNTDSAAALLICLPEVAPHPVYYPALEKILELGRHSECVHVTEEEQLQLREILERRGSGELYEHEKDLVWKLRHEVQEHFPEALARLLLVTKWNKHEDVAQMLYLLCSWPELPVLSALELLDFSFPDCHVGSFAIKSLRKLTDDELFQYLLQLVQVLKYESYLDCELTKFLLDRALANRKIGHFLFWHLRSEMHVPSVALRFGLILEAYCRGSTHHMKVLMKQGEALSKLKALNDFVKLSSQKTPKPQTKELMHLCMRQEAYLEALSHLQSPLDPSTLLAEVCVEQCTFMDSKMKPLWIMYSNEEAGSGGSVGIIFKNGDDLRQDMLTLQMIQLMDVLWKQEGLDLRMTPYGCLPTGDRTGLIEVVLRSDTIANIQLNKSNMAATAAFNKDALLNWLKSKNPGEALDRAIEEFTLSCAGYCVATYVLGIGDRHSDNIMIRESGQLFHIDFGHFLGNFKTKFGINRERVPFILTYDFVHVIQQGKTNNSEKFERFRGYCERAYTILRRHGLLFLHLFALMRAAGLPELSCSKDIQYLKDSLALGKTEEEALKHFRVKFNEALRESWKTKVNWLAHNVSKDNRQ
Each entry below carries its recorded IC50.

Please review the following examples before continuing.
compound | IC50
COC12CCC(n3c(=O)n(C)c4cnc(Nc5cn6ncnc6cc5C)nc43)(CC1)CC2 | 100 to 1000 nM
Cc1cc2c(cc1Nc1ncc3c(n1)N(C14CC(F)(C1)C4)CC(=O)N3C)OCO2 | ≥ 1000 nM
Cc1cc2nccnc2cc1Nc1ncc2c(n1)N(C13CCC(O)(CC1)C3)C(=O)C21CC1 | 100 to 1000 nM

Ask | Look up IC50: Cc1cc2nccnc2cc1Nc1ncc2c(n1)n(C13CCC(O)(CC1)C3)c(=O)n2C
Reply | 100 to 1000 nM

Ask | What does the record list as IC50 for Cc1cc2ncnn2cc1Nc1ncc2c(n1)n(C13CC(C(F)(F)F)(C1)C3)c(=O)n2C ?
Reply | ≥ 1000 nM

Ask | Please look up its IC50: Cc1cc2c(cc1Nc1ncc3c(n1)n(C14CCC(O)(CC1)C4)c(=O)n3C)OCO2
Reply | ≥ 1000 nM

Ask | Quick one: IC50 for Cc1cc2ncnn2cc1Nc1ncc2c(n1)N(C13CCC(O)(CC1)C3)C(=O)C21CC1 ?
Reply | 100 to 1000 nM

Ask | Item under review: COC12CCC(n3c(=O)n(C)c4cnc(Nc5cn6ncnc6cc5C)nc43)(CC1)C2 . Reported IC50?
Reply | ≥ 1000 nM

###

target: PI3Kα (His-PIK3CA/PIK3R1, p110 alpha/p85 alpha) (Homo sapiens (Human)); experiment: PI3Kα biochemical assay (HTRF/FRET probe); format: binding; settings: class symbol
readout_type: IC50

molecule | IC50
Cc1cc2ncnn2cc1Nc1ncc2c(n1)n(C1CC3CCC1CC3)c(=O)n2C (centres unmarked) | 100 to 1000 nM

In the following, a different molecule is considered.
Ask | Record request: IC50 value, item Cc1cc2ncnn2cc1Nc1ncc2c(n1)N(C13CCC(O)(CC1)C3)CC(=O)N2C
Reply | 100 to 1000 nM

###

target: PI3Kβ (Homo sapiens (Human)); assay: PI3Kβ biochemical assay (Reaction Biology ADP-Glo); conditions: class symbol
Sequence (P42338 whole entry): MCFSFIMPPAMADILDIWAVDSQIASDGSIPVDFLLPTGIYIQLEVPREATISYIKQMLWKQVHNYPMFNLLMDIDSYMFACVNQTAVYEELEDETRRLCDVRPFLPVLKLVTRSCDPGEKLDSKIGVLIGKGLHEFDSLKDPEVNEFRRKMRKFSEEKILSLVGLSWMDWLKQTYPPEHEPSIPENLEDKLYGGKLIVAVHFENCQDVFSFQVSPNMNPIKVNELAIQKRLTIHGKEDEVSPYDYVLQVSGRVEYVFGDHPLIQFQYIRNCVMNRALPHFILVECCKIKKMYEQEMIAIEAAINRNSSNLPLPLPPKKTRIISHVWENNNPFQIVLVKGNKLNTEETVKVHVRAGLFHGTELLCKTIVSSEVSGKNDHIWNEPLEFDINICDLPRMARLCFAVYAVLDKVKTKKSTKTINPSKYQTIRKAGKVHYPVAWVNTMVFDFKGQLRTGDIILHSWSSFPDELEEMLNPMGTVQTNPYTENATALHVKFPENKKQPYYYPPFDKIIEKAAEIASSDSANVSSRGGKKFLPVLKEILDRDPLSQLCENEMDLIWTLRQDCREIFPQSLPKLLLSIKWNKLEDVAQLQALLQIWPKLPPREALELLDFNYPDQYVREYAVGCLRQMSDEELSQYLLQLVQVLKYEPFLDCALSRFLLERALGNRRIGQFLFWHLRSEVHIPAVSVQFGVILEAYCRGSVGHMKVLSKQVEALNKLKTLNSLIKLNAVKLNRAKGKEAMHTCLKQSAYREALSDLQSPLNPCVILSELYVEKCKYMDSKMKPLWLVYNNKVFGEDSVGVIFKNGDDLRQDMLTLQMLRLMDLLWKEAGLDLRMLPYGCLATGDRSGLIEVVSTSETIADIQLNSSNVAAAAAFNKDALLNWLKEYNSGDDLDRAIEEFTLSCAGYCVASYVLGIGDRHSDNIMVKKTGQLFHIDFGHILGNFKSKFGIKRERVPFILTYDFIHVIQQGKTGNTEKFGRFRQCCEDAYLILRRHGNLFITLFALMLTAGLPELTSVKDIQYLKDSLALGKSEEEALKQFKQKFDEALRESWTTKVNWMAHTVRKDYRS
Sequence (P27986 whole entry partner): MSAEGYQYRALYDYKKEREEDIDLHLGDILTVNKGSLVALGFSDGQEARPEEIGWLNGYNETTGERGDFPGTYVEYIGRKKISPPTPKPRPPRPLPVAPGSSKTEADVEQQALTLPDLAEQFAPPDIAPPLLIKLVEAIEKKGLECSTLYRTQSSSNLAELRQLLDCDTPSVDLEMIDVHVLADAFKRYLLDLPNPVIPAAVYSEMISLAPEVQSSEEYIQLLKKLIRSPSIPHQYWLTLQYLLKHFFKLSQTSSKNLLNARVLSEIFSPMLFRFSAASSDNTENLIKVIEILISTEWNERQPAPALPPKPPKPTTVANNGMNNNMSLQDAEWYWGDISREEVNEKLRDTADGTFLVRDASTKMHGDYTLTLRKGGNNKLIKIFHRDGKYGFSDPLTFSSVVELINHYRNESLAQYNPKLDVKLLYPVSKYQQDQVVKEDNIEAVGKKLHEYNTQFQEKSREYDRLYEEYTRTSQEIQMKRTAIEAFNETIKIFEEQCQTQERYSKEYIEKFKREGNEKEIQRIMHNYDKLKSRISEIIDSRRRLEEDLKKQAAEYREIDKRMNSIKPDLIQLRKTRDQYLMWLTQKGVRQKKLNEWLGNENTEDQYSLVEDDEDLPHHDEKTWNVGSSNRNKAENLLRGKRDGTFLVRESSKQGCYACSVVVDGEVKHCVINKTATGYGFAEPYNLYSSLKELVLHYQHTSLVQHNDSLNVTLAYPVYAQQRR
pIC50: −log10 of the molar value.
readout_type: pIC50

compound | tgt | pIC50
Cc1cc2c(cc1Nc1ncc3c(n1)n(C14CC(F)(C1)C4)c(=O)n3C)OCO2 | PI3Kβ (Homo sapiens (Human)) | ≤ 6.00
Cc1cc2c(cc1Nc1ncc3c(n1)n(C1CC4CCC1CC4)c(=O)n3C)OCO2 (stereo not shown) | PI3Kβ (Homo sapiens (Human)) | ≤ 6.00
Cc1cc2ncccc2cc1Nc1ncc2c(n1)n(C13CC(F)(C1)C3)c(=O)n2C | PI3Kβ (Homo sapiens (Human)) | 6.00 to 7.00

Let us move to another entry and its pIC50.
Ask | Which pIC50 is listed for Cc1cc2c(cc1Nc1ncc3c(n1)n([C@H]1C[C@@H]4CC[C@H]1C4)c(=O)n3C)OCO2 ?
Reply | ≤ 6.00

###

Recorded pIC50 by entry
molecular target: PI3Kα (His-PIK3CA/PIK3R1, p110 alpha/p85 alpha) (Homo sapiens (Human), UniProt P42336); test: PI3Kα biochemical assay (HTRF/FRET probe); format: binding; conditions: class symbol
Sequence (P42336 whole entry, species assumed): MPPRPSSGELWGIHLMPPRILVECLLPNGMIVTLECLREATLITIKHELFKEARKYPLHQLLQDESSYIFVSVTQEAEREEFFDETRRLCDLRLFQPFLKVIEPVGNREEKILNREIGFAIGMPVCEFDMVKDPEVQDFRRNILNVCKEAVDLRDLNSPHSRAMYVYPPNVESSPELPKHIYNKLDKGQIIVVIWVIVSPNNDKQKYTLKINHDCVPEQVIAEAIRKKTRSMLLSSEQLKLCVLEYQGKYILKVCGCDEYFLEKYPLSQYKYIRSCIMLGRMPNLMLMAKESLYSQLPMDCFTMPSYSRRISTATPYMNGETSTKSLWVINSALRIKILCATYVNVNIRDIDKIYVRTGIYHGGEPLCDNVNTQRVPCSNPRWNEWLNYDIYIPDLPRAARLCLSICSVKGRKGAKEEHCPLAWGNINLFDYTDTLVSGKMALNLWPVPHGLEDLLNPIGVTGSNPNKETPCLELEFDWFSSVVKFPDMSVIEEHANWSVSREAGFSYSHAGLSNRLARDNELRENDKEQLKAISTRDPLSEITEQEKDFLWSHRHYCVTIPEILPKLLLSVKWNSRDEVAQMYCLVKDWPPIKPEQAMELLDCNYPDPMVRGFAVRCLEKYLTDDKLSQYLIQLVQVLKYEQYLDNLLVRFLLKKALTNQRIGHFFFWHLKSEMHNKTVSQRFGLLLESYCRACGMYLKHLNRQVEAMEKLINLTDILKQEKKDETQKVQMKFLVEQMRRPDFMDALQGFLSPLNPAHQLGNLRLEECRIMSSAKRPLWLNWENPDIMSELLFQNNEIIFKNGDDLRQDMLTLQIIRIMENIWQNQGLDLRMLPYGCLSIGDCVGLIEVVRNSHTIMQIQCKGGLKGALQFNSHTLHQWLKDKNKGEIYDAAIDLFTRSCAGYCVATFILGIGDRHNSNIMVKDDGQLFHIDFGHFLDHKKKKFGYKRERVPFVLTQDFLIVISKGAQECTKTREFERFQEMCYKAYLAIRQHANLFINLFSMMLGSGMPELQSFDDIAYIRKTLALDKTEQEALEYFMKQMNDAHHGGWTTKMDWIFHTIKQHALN
Sequence (P27986 whole entry partner, species assumed): as the sequence (P27986 whole entry partner) above
pIC50: −log10 of the molar value.

Field: example entries. Status: answers known.
smiles_repr | pIC50
Cc1cc2c(cc1Nc1ncc3c(n1)n(C14CC(CC#N)(C1)C4)c(=O)n3C)OCO2 | 6.00 to 7.00
Cc1cc2c(cc1Nc1ncc3c(n1)n(C14CC(C(F)(F)F)(C1)C4)c(=O)n3C)OCO2 | ≤ 6.00
Cc1cc2nccnc2cc1Nc1ncc2c(n1)N(C13CCC(O)(CC1)C3)CC(=O)N2C | 6.00 to 7.00

Next item in the queue.
Ask | Recorded pIC50 for Cc1cc(-c2cnn(C)c2)c(F)cc1Nc1ncc2c(n1)n(C13CCC(O)(CC1)C3)c(=O)n2C with PI3Kα (His-PIK3CA/PIK3R1, p110 alpha/p85 alpha) (Homo sapiens (Human), UniProt P42336), please?
Reply | 6.00 to 7.00

###

molecular target: PI3Kα (His-PIK3CA/PIK3R1, p110 alpha/p85 alpha) (Homo sapiens (Human), UniProt P42336); assay: PI3Kα biochemical assay (HTRF/FRET probe); type: binding; conditions: class symbol
readout_type: IC50

Example results:
smiles_repr | tgt | readout_type | reading
COCC12CC(n3c(=O)n(C)c4cnc(Nc5cn6ncnc6cc5C)nc43)(C1)C2 | PI3Kα (His-PIK3CA/PIK3R1, p110 alpha/p85 alpha) (Homo sapiens (Human), UniProt P42336) | IC50 | 100 to 1000 nM
Cc1cc2ncnn2cc1Nc1ncc2c(n1)n(C13CC(F)(C1)C3)c(=O)n2C | PI3Kα (His-PIK3CA/PIK3R1, p110 alpha/p85 alpha) (Homo sapiens (Human), UniProt P42336) | IC50 | ≥ 1000 nM
Cc1cc2nsnc2cc1Nc1ncc2c(C)nn(C34CC(C3)C4)c2n1 | PI3Kα (His-PIK3CA/PIK3R1, p110 alpha/p85 alpha) (Homo sapiens (Human), UniProt P42336) | IC50 | ≥ 1000 nM
Cc1cc2nccnc2cc1Nc1ncc2c(n1)n(C13CC(F)(C1)C3)c(=O)n2C | PI3Kα (His-PIK3CA/PIK3R1, p110 alpha/p85 alpha) (Homo sapiens (Human), UniProt P42336) | IC50 | 100 to 1000 nM
Cc1cc2nsnc2cc1Nc1ncc2c(n1)N(C13CC(F)(C1)C3)CC(=O)N2C | PI3Kα (His-PIK3CA/PIK3R1, p110 alpha/p85 alpha) (Homo sapiens (Human), UniProt P42336) | IC50 | ≥ 1000 nM

Ask | Query: IC50; subject: Cc1cc2ncccc2cc1Nc1ncc2c(n1)N(C13CC(F)(C1)C3)CC(=O)N2C
Reply | 100 to 1000 nM

Ask | Requested read-out: IC50. Entry: Cc1cc2nccnc2cc1Nc1ncc2c(n1)N(C13CC(F)(C1)C3)C(=O)C21CC1
Reply | 100 to 1000 nM

Ask | Given the entry Cc1cc2c(cc1Nc1ncc3c(n1)n(C14CC(F)(C1)C4)c(=S)n3C)OCO2 , report its measured IC50.
Reply | ≥ 1000 nM

###

target: PI3Kδ (His-PIK3CD/PIK3R1, p110 delta/p85 alpha) (Homo sapiens (Human)); assay: PI3Kδ biochemical assay (HTRF/FRET probe); type: binding; conditions: class symbol
readout_type: IC50

Ask | Can you look up IC50 on PI3Kδ (His-PIK3CD/PIK3R1, p110 delta/p85 alpha) (Homo sapiens (Human)) for COC12CCC(n3c(=O)n(C)c4cnc(Nc5cc6c(cc5C)OCCO6)nc43)(CC1)C2 ?
Reply | ≥ 1000 nM

Ask | For PI3Kδ (His-PIK3CD/PIK3R1, p110 delta/p85 alpha) (Homo sapiens (Human)), provide IC50 of Cc1cc2ncccc2cc1Nc1ncc2c(n1)N(C13CC(F)(C1)C3)C(=O)C21CC1 please.
Reply | ≥ 1000 nM

Ask | Give the reported IC50 for COC12CCC(n3c(=O)n(C)c4cnc(Nc5cc6nccnc6cc5C)nc43)(CC1)C2 (system: PI3Kδ (His-PIK3CD/PIK3R1, p110 delta/p85 alpha) (Homo sapiens (Human))).
Reply | 100 to 1000 nM

Ask | What IC50 appears in the records for this compound with PI3Kδ (His-PIK3CD/PIK3R1, p110 delta/p85 alpha) (Homo sapiens (Human))? Cc1cc2c(cc1Nc1ncc3c(n1)N(C14CCC(O)(CC1)C4)CC(=O)N3C)OCO2
Reply | ≥ 1000 nM

Ask | Please tell me: IC50 of COC12CCC(n3c(=O)n(C)c4cnc(Nc5cc(F)c(-c6cnn(C)c6)cc5C)nc43)(C1)C2 , system PI3Kδ (His-PIK3CD/PIK3R1, p110 delta/p85 alpha) (Homo sapiens (Human))?
Reply | ≥ 1000 nM
